molecular target: UniProtKB O75581; assay: SPR on immobilized recombinant LRP6
Sequence (O75581 20-1613): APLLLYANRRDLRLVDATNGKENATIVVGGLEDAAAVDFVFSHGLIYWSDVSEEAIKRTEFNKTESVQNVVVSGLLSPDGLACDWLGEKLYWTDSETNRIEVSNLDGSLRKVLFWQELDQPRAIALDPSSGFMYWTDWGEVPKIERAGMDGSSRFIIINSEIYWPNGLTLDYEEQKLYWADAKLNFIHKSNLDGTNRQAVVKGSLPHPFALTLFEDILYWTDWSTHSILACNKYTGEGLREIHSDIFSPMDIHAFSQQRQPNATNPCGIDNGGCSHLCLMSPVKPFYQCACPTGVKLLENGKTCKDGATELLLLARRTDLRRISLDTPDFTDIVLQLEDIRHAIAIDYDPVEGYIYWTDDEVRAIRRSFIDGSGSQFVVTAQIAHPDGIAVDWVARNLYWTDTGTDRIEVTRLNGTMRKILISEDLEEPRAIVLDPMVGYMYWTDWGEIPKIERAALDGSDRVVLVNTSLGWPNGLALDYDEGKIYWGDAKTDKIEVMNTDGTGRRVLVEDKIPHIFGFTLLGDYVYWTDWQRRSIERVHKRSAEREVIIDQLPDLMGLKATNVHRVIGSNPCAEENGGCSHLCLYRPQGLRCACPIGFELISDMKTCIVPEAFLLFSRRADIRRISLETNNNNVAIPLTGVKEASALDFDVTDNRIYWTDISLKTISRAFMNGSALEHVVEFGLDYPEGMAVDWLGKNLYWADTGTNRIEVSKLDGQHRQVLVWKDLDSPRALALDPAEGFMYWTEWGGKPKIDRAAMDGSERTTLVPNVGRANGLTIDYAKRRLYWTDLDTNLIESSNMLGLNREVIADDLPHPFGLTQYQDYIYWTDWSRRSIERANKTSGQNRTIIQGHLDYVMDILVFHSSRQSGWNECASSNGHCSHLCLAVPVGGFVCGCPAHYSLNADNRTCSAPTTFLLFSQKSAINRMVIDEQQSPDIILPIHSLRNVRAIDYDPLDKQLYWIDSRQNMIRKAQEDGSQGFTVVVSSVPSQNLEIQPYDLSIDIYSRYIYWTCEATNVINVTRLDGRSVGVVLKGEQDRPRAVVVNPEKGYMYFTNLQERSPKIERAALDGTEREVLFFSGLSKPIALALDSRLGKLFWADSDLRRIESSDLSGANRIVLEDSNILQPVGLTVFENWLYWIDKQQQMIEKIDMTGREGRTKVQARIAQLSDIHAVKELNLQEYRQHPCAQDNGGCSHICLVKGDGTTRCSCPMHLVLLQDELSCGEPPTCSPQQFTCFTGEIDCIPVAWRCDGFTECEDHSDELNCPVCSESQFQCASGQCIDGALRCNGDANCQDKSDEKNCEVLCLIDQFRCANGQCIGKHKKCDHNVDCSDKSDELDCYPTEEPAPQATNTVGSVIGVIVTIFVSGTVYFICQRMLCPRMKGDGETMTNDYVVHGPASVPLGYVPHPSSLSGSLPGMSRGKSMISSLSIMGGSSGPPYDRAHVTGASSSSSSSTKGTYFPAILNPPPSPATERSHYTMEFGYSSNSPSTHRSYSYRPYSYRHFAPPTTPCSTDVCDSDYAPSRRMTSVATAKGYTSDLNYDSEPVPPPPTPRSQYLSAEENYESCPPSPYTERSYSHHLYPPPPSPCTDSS
attributeMeasured: pKd
FYI, pKd means -log10 of a concentration in mol per litre.

Item under review: "C=CCSSC[C@H](N)C(=O)O" . Reported pKd?
5.25
